target: UniProt:P23975; experiment: Human NET (norepinephrine transporter) uptake assay; assay type: cell-based; settings: comparison in words, used to assign configuration
Sequence (P23975 whole entry): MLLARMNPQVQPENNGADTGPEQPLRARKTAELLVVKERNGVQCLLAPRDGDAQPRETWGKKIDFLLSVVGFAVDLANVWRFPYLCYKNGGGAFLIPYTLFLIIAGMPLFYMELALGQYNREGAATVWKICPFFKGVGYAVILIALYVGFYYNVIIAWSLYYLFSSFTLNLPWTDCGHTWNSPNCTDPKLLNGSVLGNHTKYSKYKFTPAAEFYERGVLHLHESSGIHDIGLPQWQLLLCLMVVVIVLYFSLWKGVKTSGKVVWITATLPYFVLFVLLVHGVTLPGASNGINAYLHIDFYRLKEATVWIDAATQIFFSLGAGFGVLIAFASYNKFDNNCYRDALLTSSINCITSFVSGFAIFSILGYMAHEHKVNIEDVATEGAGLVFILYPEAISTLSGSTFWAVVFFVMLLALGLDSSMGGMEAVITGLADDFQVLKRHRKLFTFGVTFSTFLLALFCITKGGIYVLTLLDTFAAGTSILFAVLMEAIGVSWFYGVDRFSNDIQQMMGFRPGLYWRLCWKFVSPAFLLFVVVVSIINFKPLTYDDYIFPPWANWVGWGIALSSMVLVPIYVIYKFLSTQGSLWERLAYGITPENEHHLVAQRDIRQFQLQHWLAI
quantity kind: potency at hNET relative to the other enantiomer or epimer

1. CNC[C@H](c1ccc(Cl)c(Cl)c1)[C@@H](O)c1ccccc1[N+](=O)[O-]
more potent
2. CNC[C@@H](c1ccc(Cl)c(Cl)c1)[C@@H](O)c1cccc(SC)c1 [compound 154]
lower potency
3. CNC[C@@H](c1ccc(Cl)c(Cl)c1)[C@@H](O)c1cccc(OC)n1
lower potency
4. CNC[C@@H](c1ccc(Cl)c(Cl)c1)[C@@H](O)c1ccsc1
lower potency
5. CNCC(Cc1ccccc1C)c1ccc2ccccc2c1 (stereo not drawn)
more potent

Now for another entry.
Ask: Hello, please tell me recorded potency at hNET relative to the other enantiomer or epimer for this one: CNC[C@H](c1ccc(Cl)c(Cl)c1)[C@@H](O)c1cccc(SC)c1
Reply: more potent
